target: Glycogen synthase kinase-3 beta (Homo sapiens) (UniProt P49841); conditions: Compound concentration 20.0 uM, Protein concentration 2.0 uM, Result type QC Liability
Sequence (P49841 whole entry, looked up): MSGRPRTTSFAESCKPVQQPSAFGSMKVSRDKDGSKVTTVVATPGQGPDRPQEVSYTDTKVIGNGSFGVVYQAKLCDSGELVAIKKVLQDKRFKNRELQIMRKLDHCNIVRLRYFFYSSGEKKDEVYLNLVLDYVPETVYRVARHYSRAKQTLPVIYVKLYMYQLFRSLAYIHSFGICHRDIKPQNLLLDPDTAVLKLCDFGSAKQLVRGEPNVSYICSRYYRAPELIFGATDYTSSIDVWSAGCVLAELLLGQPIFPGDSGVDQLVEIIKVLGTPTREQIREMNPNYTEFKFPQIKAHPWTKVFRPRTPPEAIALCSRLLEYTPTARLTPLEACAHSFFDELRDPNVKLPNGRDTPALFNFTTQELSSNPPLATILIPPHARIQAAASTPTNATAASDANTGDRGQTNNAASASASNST
Description: Thermal Shift Assay. Domain: start/stop: M26-R383
Consider the cut-off -0.5 °C. If the recorded ΔTm is strictly smaller, the label is True; if not, the label is False.

Would you please look over these solved cases?
1) COc1cc(C(=O)NCCOCCOCCOCCC(=O)Nc2cccc3c2C(=O)N(C2CCC(=O)NC2=O)C3=O)ccc1Nc1ncc(C(F)(F)F)c(Oc2cccc3c2C(=O)CC3)n1 (stereo not drawn): False
2) N=C(N)NCCC[C@H](NC(=O)C(c1ccccc1)c1ccccc1)C(=O)NCc1ccc(CNC(N)=O)cc1: True
3) CCCCNc1ncc2c(-c3ccc(CN4CCN(C)CC4)cc3)cn([C@H]3CC[C@H](O)CC3)c2n1: False
4) CCC(=O)N[C@H]1CC[C@@H](C(=O)N(C)c2ccc(-c3nc4ccccc4o3)cc2)C1: False
5) Fc1cccc(-n2cnc3c(NCc4nc5c(F)c(F)ccc5[nH]4)nc(N4CCOCC4)nc32)c1: False
6) Cc1ccc(NC(=O)c2ccc3c(c2)OCCO3)cc1NC(=O)c1ccc2nc(OCCN3CCCC3)ccc2c1: False

**Query** Hello, is ΔTm of the following compound strictly smaller than -0.5 °C? `CN[C@@H](C)C(=O)N[C@H](C(=O)N1CCC[C@H]1c1nc(C(=O)c2ccc(F)cc2)cs1)C1CCCCC1`
**Result** True

**Query** Hello, is ΔTm of the following compound strictly smaller than -0.5 °C? `Nc1ncc2c(n1)-c1c([nH]c3ccc(C4=CCOCC4)cc13)CCC2`
**Result** False

----------
molecular target: Tyrosine-protein kinase ABL1 (Homo sapiens); details: Compound concentration 20.0 uM, Protein concentration 2.0 uM, Result type QC Liability
Description: Thermal Shift Assay. Domain: start/stop: S229-K512
The reader will find reported ΔTm values listed item by item below.
Write it as a number; the unit °C goes unstated.

**Query** Give ΔTm for `CCN(C(=O)CO)[C@H]1CN(/C(=N\C#N)Nc2cccc(OC(F)F)c2)N=C1c1ccc(Cl)c(Cl)c1`
**Result** 0.46

**Query** Give ΔTm for `CC1(C)C[C@@H]1C(=O)N/C(=C\CCCCSC[C@H](N)C(=O)O)C(=O)O`
**Result** 0.34

**Query** Give ΔTm for `COc1ncc(-c2cc(-c3ncc(CN4C[C@@H](C)O[C@@H](C)C4)o3)c3cn[nH]c3c2)cc1NS(C)(=O)=O`
**Result** 0.42

**Query** Give ΔTm for `CC(C)(C)c1cc(NC(=O)c2csc(Nc3ccccn3)n2)no1`
**Result** 1.84

**Query** Give ΔTm for Cc1cc(C2CCCNC2)ccc1Nc1ncc(Br)c(NCc2cccc3c2C(C)(C)C(=O)N3)n1 (centres undefined)
**Result** 1.52

**Query** Give ΔTm for `CN1C(=O)[C@@H](NC(=O)c2cc(Cc3ccccc3)on2)COc2ccccc21`
**Result** -2.16

**Query** Give ΔTm for `O=C(CNCc1cc2ccccc2[nH]1)N[C@H]1CC[C@@H](c2nc3ccccc3[nH]2)CC1`
**Result** 0.13

**Query** Give ΔTm for `NC(=O)c1ccccc1Nc1nc(-c2ccc(N3CCOCC3)cc2)cc2ncccc12`
**Result** 7.91

**Query** Give ΔTm for CC1CN(CC(=O)N2CC(C)(C)c3nc(CO)c(Cc4ccc(F)cc4)cc32)C(CN2CCOCC2C)CN1 (centres undefined)
**Result** 0.01
